Data origin, for the record: PubChem BioAssay AID1508600

assay: Components of the Cytosolic LPS Sensing Pathway: Gene Identification via Genome-wide siRNA Screen; details: RAW264.7 macrophages, IL-1a HTRF, actives lie on both sides, screened at 100 nM (by protocol), cells primed 5 h with Pam3CSK4 first;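 note: robust z of the log signal after scaling to non-targeting control siRNA wells of the plate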
About 3,700 (7%) of roughly 53,000 sequences were called active. The full list was thinned out, with actives kept by preference.
measurement.type: z-score

> print(dat)
                         monomer.sequence  measurement.type  quantitative.readout
 1   GCCUGGUUACAGCAUUAACTT against Rimkla           z-score                 -1.75
 2   GGUUCUGGUAUAAGUUAACTT against Gabrg3           z-score                 0.292
 3       GGGAAGAGAAUGAGAUAAATT against F7           z-score                  3.22
 4    CGUGGUCGUGAGAUGUUUGTT against Chid1           z-score                  1.35
 5    GGGACUUUGGUCAAUAAUGTT against Tcf19           z-score                 0.247
 6   GCGAGAGUUUUUCUUCAACTT against Hoxc11           z-score                 0.385
 7   GCCACAACCACCUGAACUUTT against Amigo1           z-score                -0.854
 8    CCUGCAUUUACUCAACUUGTT against Snrpe           z-score                 -1.74
 9     GGAUGUGCACGAAGGACAGTT against Cdh2           z-score                  2.09
10  CGGAAAAUCCUGCCUCCCUTT against S100pbp           z-score                 -0.36
11   GGCACUUCAACAGCAGUUATT against Cep295           z-score                 -1.27
12    GGUGGAACAACUGUUUCAATT against Dyrk3           z-score                 0.541

###

experiment: Components of the Cytosolic LPS Sensing Pathway: Gene Identification via Genome-wide siRNA Screen; settings: RAW264.7 macrophages, IL-1a HTRF, actives lie on both sides, screened at 100 nM (by protocol), cells primed 5 h with Pam3CSK4 first;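 note: robust z of the log signal after scaling to non-targeting control siRNA wells of the plate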
Screen size: about 53,000 sequences; about 3,700 (7%) were called active.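 Rule for the calls: active = gene knockdowns whose robust z-score for IL-1 alpha signal is at least 2 or at most -2, so actives lie on both sides; inactive = the rest.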 The sample as a whole holds a higher share of actives than the screen did.
Possible outcomes: 1 (yes) = active, 0 (no) = inactive

> print(dat)
                            monomer.sequence  category.label
 1       GAGUUCCAGUUUAUCCCUUTT against Klra1         1 (yes)
 2       GGAGCCCUGUGUCUUGAGUTT against Ccl19          0 (no)
 3       GCUUACAAGGCAUGUAUGATT against Rccd1         1 (yes)
 4        GGAUGUAUGCCAAAGAAUUTT against Fmo5          0 (no)
 5        CGGUAAACAUCAGUAAUGATT against Drd5          0 (no)
 6      GGCCUCUUACAAAGUGAGATT against Supt7l          0 (no)
 7     UCAUCGCAACCAUCCACAGTT against Olfr530          0 (no)
 8        GGGCACAAUUCAAAACUUATT against Pgm2          0 (no)
 9        GGAGACCAAAAUUUCUUGGTT against Sox9          0 (no)
10     GGUGCAUGUCUUCAUCCACTT against Rnase12         1 (yes)
11        GGCCCUCUCCAAGUCUAUATT against Pex7          0 (no)
12      GGAAGAAAAAAACUUCGUUTT against Gabrg3          0 (no)
13       GGCUGAGAAUGCAAGAAUGTT against Krt32          0 (no)
14       CGCAGAGUUAAUUUCUUGUTT against Rchy1          0 (no)
15        CGGCACCAGUGUUCUAUUGTT against Ddi2          0 (no)
16  CCCUGCUGGUUGGUAAUCATT against F830005K03Rik          0 (no)
17      GGUAGAAAACAUAAAUGGUTT against Sec16a          0 (no)
18       GGAAGACCAAUAGUACUGCTT against Il1rn          0 (no)
19       GGCAUCAAUAGGAAGAUGCTT against Rgs19          0 (no)
20     GGCGUAGGGCCAUAUCAUUTT against Olfr109          0 (no)
21     CCUUGAUCUACAUAGAACCTT against Olfr177          0 (no)
22      GAGGGAUAUGUGAAGCCUCTT against Mospd3          0 (no)
23        GACGAUUCUCUGUUGGUGUTT against Hcrt          0 (no)
24       GGGCAAAAAAGGUCUAUUCTT against Rfpl4          0 (no)
25      GGAUUUGAAAUAGGAAUAGTT against Sh3yl1          0 (no)
